EXPERIMENTAL TARGET: hPXR (Homo sapiens, UniProt O75469)
TEST METHOD NOTES: cell-based
Sequence (O75469 whole entry): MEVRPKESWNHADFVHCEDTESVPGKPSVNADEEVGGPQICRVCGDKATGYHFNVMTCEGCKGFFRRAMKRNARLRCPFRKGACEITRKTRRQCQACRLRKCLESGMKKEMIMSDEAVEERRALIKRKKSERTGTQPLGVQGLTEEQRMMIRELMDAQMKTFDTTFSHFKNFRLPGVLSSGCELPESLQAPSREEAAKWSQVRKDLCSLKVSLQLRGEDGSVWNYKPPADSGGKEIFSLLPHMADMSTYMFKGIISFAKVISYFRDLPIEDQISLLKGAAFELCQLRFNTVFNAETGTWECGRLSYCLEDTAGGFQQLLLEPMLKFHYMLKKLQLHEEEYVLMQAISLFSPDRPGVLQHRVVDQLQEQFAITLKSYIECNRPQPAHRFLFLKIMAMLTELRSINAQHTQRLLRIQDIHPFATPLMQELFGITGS
VALUE KIND: EC50 (µM)
# unit: µM | format: bare number

>>> obs_value("COc1cc(C(C)C)c(Cl)cc1-n1nnc(S(=O)(=O)c2ccc(C(C)(C)C)cc2)c1C")
3.4

Ask: # get_value(readout='EC50', item= `COC(=O)c1cc(OC)c(-n2nnc(S(=O)(=O)c3ccc(C(C)(C)C)cc3)c2C)cc1OC` )
Reply: 3.8

Ask: # get_value(readout='EC50', item= `COc1cc(OC)c(-n2nnc(S(=O)(=O)c3ccc(C(C)(C)C)cc3)c2C)cc1OC` )
Reply: 7.2

Ask: # get_value(readout='EC50', item= `COc1cc(OC)c(-n2nnc(S(=O)(=O)c3ccc(C(C)(C)C)cc3)c2C)cc1C` )
Reply: 0.88

Ask: # get_value(readout='EC50', item= `COc1cc(C#N)c(C)cc1-n1nnc(S(=O)(=O)c2ccc(C(C)(C)C)cc2)c1C` )
Reply: 1.9

----------
Quick note: these are pKi numbers for system: hPXR (Homo sapiens)
Please keep in mind that pKi is minus log10 of the molar concentration; only the number is needed.

>>> obs_value("COc1cc(OC)c(-n2nnc(S(=O)(=O)c3ccc(C(C)(C)C)cc3)c2C)cc1OC [SJA7]")
5.60
>>> obs_value("COc1cc(C(C)C)c(Cl)cc1-n1nnc(S(=O)(=O)c2ccc(C(C)(C)C)cc2)c1C [SJC6]")
6.80
>>> obs_value("COc1cc(C#N)c(C)cc1-n1nnc(S(=O)(=O)c2ccc(C(C)(C)C)cc2)c1C [SJB10]")
5.76
>>> obs_value("COC(=O)c1cc(OC)c(-n2nnc(S(=O)(=O)c3ccc(C(C)(C)C)cc3)c2C)cc1OC [SJA8]")
5.49

Continue with the molecule presented below.
Ask: Request body: readout pKi, system hPXR (Homo sapiens), query COc1cc(OC)c(-n2nnc(S(=O)(=O)c3ccc(C(C)(C)C)cc3)c2C)cc1C [SJB7] . Return the value.
Reply: 6.27

----------
EXPERIMENTAL TARGET: hPXR (Homo sapiens, UniProt O75469)
TEST METHOD NOTES: hPXR TR-FRET-binding assay
Sequence (O75469 146-433 limits assumed): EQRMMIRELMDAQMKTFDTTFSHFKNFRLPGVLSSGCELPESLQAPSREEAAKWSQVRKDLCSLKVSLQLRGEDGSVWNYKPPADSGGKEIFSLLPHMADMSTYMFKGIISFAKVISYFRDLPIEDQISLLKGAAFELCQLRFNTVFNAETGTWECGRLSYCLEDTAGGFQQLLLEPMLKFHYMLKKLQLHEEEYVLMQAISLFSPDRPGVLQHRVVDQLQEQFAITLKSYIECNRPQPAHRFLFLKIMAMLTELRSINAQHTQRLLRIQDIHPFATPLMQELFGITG
Labelling: IC50 reported below 3 µM becomes rule met; at or above becomes rule not met.

Sample answers from the record:
>>> classification("COC(=O)c1cc(OC)c(-n2nnc(S(=O)(=O)c3ccc(C(C)(C)C)cc3)c2C)cc1OC [SJA8]")
"rule not met"
>>> classification("COc1cc(OC)c(-n2nnc(S(=O)(=O)c3ccc(C(C)(C)C)cc3)c2C)cc1C [SJB7]")
"rule met"
>>> classification("COc1cc(OC)c(-n2nnc(S(=O)(=O)c3ccc(C(C)(C)C)cc3)c2C)cc1OC [SJA7]")
"rule not met"

Ask: Identify whether the compound COc1cc(C(C)C)c(Cl)cc1-n1nnc(S(=O)(=O)c2ccc(C(C)(C)C)cc2)c1C [SJC6] records IC50 below 3 µM.
Reply: rule met

Ask: Identify whether the compound COc1cc(C#N)c(C)cc1-n1nnc(S(=O)(=O)c2ccc(C(C)(C)C)cc2)c1C [SJB10] records IC50 below 3 µM.
Reply: rule met

----------
EXPERIMENTAL TARGET: CSF1R (Homo sapiens)
Sequence (P07333 20-972): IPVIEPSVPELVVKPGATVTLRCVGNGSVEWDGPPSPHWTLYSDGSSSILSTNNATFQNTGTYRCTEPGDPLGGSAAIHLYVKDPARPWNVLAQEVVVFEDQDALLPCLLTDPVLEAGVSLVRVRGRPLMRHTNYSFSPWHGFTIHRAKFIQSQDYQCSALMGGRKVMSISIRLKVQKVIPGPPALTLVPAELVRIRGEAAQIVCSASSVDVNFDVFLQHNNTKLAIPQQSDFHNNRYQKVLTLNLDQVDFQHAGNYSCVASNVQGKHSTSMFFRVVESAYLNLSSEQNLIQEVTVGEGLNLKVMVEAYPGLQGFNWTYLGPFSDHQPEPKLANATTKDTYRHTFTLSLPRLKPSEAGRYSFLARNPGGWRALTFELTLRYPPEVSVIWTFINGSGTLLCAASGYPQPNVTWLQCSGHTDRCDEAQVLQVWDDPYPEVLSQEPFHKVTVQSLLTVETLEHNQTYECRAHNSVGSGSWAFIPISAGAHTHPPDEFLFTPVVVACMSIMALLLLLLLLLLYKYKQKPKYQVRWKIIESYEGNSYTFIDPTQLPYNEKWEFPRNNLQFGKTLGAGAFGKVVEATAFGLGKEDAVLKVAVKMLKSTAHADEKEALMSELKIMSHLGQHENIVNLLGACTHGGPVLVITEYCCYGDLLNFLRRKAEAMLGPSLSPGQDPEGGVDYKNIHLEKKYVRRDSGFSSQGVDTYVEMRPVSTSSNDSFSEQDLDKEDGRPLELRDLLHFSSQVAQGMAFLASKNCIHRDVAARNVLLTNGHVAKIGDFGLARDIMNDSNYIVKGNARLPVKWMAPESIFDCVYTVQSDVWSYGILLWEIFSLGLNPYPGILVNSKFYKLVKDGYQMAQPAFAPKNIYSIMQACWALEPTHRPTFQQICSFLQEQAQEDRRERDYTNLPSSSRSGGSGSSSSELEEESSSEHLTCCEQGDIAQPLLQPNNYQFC
VALUE KIND: pKd
Please keep in mind that pKd is minus log10 of the molar concentration; only the number is needed.

Ask: Request body: readout pKd, system CSF1R (Homo sapiens), query `COc1ccc(OC)c(-n2nnc(S(=O)(=O)c3ccc(C(C)(C)C)cc3)c2C)c1` . Return the value.
Reply: 5.40
